B1: TPR t1 (parent)
chain: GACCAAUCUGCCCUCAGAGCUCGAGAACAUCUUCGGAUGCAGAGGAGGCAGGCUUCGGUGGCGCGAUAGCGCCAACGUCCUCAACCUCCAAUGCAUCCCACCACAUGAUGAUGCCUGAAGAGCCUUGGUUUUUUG

- Variants of: B1
- ASSAY: polymerase ribozyme fitness, log enrichment relative to wild type (log ratio); higher = more active; in vitro selection for triplet polymerase activity
// reported polymerase ribozyme fitness (log ratio) per item
Form field (numeric): enter value without unit.

The cases that follow already have their polymerase ribozyme fitness (log ratio) on record.
INSERT INTO assay_data (mutation_id, meas_value) VALUES
  ('C8U U32G C101A C115G', -5.52),
  ('G44C G63A A121G', 0.865),
  ('U78C U112A', 1.12),
  ('C40G C56A U106C', -1.47),
  ('C62G C115U G122U', -5.8);

Here is the next item to consider.
Form field polymerase ribozyme fitness (log ratio), entry A16C A50G : -2.32
